- target.desc: Peroxisome proliferator-activated receptor gamma (Homo sapiens)
- test: qHTS assay to identify small molecule antagonists of the peroxisome proliferator-activated receptor gamma (PPARg) signaling pathway (AID 743191); further: nearly all actives have a fitted effect of over 30% in size
- recorded.conditions: HEK293H PPARg-UAS-bla, beta-lactamase ratio, antagonist, 17 h; series mostly up to 62.6 µM
Results filed as inconclusive are left out. Calls of active or inactive are those of the source. The call rests on the fitted dose curve.
Output constraint: value belongs to active, inactive

For S=C(SSSSSSC(=S)N1CCCCC1)N1CCCCC1 , which call appears in the assay record?
inactive

And the next one, Cc1occc1SSc1ccoc1C ?
inactive

How about this compound: O=C1OC(OC(=O)c2cccnc2Nc2cccc(C(F)(F)F)c2)c2ccccc21 (stereo not drawn)
active

Check CCNc1nc(NC(C)CC)nc(OC)n1 (stereo not drawn) too.
inactive

Now this one: O=C(O)CC(=O)O
inactive

Try CCN(CC)c1ccc(N)cc1 next.
inactive

Again, but for CC(=O)Oc1ccc(C2(c3ccc(OC(C)=O)cc3)C(=O)Nc3ccccc32)cc1
inactive

Now consider CCCCNc1c(C(=O)OCC)c(C)nc2c1cnn2CC and answer again.
inactive

Here is the next compound: CCN1CCN(c2cc(-c3ccc(F)cc3)c3c(n2)CCCCCC3)CC1
inactive

Note, next up: CCCCCCCC/C=C/CCCOC(C)=O
inactive

Query CC1CCCNC1 (stereo not drawn) next
inactive

Also, CCOC(=O)[C@@](C)(N)Cc1ccc(O)c(O)c1 please.
inactive

One more compound: CN1CCN(C2Cc3ccccc3Sc3ccc(Cl)cc32)CC1 (stereo not drawn)
active
